Assay: Multiple-dose (once weekly for 3 weeks) plasma pharmacokinetics of MK-8507 tablet
Type: in vivo, human
Settings: human, plasma, oral, 400 mg, 400 mg tablet once weekly, wk 1, n=6; read-out: Tmax (median [min, max])
metric: Tmax (h)
I only need the number, in h, no unit after it.

State the recorded Tmax for this entry: N#Cc1cc(Cl)cc(Oc2c(C(F)(F)F)ncn(Cc3cc(C(F)(F)F)c(=O)[nH]n3)c2=O)c1 [MK-8507]
4

====

Assay: Single-dose plasma pharmacokinetics of MK-8507 (suspension, study 1; tablet, study 2)
Assay type: in vivo
Details: human, po, 400 mg, single oral dose 400 mg, tablet, fasted, n=6, read-out: Apparent terminal t½ (geometric mean [%GVC]) (converted)
metric: half-life
Phrase the answer as number then unit, nothing more needed.

Param item = N#Cc1cc(Cl)cc(Oc2c(C(F)(F)F)ncn(Cc3cc(C(F)(F)F)c(=O)[nH]n3)c2=O)c1 ; retrieve measured half-life.
58.3 h

====

Test: Single-dose plasma pharmacokinetics of MK-8507 (suspension, study 1; tablet, study 2)
Assay type: in vivo
Conditions: human, po, 10 mg, single oral dose 10 mg, suspension, fasted, n=6, read-out: Apparent terminal t½ (geometric mean [%GVC]) (converted)
metric: half-life (h)
Form entry: value (h) — number only.

Which half-life value belongs to N#Cc1cc(Cl)cc(Oc2c(C(F)(F)F)ncn(Cc3cc(C(F)(F)F)c(=O)[nH]n3)c2=O)c1 [MK-8507] ?
82

====

Assay: Single-dose plasma pharmacokinetics of MK-8507 (suspension, study 1; tablet, study 2)
Type: in vivo
Settings: human, po, 10 mg, single oral dose 10 mg, suspension, fasted, n=6, read-out: AUC0-∞ (geometric mean [95% CI])
metric: AUC(0-inf) (µM·h)
Write down the numeric answer in µM·h and omit the unit.

Need AUC(0-inf), item N#Cc1cc(Cl)cc(Oc2c(C(F)(F)F)ncn(Cc3cc(C(F)(F)F)c(=O)[nH]n3)c2=O)c1
15.2

====

Experiment: Single-dose plasma pharmacokinetics of MK-8507 (suspension, study 1; tablet, study 2)
Type: in vivo
Details: human, po, 400 mg, single oral dose 400 mg, suspension, fasted, n=6, read-out: C168hr (geometric mean [95% CI])
metric: concentration at 168 h (nM)
Field: numeric (nM). Do not append units.

What value of concentration at 168 h has been reported for the following compound? N#Cc1cc(Cl)cc(Oc2c(C(F)(F)F)ncn(Cc3cc(C(F)(F)F)c(=O)[nH]n3)c2=O)c1
1300

====

Assay: Single-dose plasma pharmacokinetics of MK-8507 (suspension, study 1; tablet, study 2)
Format: in vivo
Settings: human, po, oral doses across both studies, suspension or tablet, read-out: time to maximum concentration (Tmax)
metric: Tmax

Would you kindly share the measured Tmax for N#Cc1cc(Cl)cc(Oc2c(C(F)(F)F)ncn(Cc3cc(C(F)(F)F)c(=O)[nH]n3)c2=O)c1 ?
2 to 7 h

====

Assay: Single-dose plasma pharmacokinetics of MK-8507 (suspension, study 1; tablet, study 2)
Assay type: in vivo
Conditions: human, oral, some participants, 336 h of PK sampling, read-out: t1/2 in some participants
metric: half-life

# half-life lookup, item N#Cc1cc(Cl)cc(Oc2c(C(F)(F)F)ncn(Cc3cc(C(F)(F)F)c(=O)[nH]n3)c2=O)c1
> 100 h

====

Test: Multiple-dose (once weekly for 3 weeks) plasma pharmacokinetics of MK-8507 tablet
Type: in vivo, human
Details: human, plasma, oral, 100 mg, 100 mg tablet once weekly, wk 2, n=6; read-out: C168hr (geometric mean [95% CI])
metric: concentration at 168 h
Respond with a number, then the unit of measure.

Consider the compound N#Cc1cc(Cl)cc(Oc2c(C(F)(F)F)ncn(Cc3cc(C(F)(F)F)c(=O)[nH]n3)c2=O)c1 and give its measured concentration at 168 h.
390 nM

Values compiled from paper PMC8597757.
